- Tested on: XIP peptide (Xip251-270) binding
- assay: small-molecule binders of XIP peptide, primary screen, biochemical, small-molecule microarray, fluorescence 635/667 nm, 0.1 µg/mL protein (AID 1182)
- test-settings: fluorescent protein binding, 635 nm, higher = more signal, called active from +8 up or from −8 down
Outcome: t for composite z-score of at least 0.8; f for anything lower.

C[C@@H](OCc1ccccc1)C1NC(=O)[C@@]23C(=O)N[C@@H](Cc4ccccc4)C2[C@H](C)[C@@]2(C)O[C@H]2C3/C=C/C/C=C\CNC(=O)[C@H](Cc2ccccc2)NC1=O (stereo partly specified) ... f
COC(=O)[C@@]1(Cc2ccc(F)cc2)[C@H]2c3cc(C(=O)N(C)C)n(CCN4CCOCC4)c3C[C@H]2CN1C(=O)c1ccccc1 ... f
COCCOC(=O)N1C(=O)[C@@]2(c3cc(C#CCC(C(=O)OC)C(=O)OC)ccc31)[C@H](c1ccc(OCCO)cc1)N1[C@H](c3ccccc3)[C@H](c3ccccc3)OC(=O)[C@H]1[C@@H]2C(=O)N1CCCCCCC1 ... t
COc1ccc([Si](C)(C)[C@@H]2[C@@H](CC(=O)N(CCO)Cc3ccccc3)O[C@]3(C(=O)N(Cc4ccc(N5CCC5=O)cc4)c4ccccc43)[C@H]2C)cc1 ... t
COC(=O)[C@@]1(Cc2ccc(OC)cc2)[C@H]2c3cc(C(=O)N4CCCC4)n(CCc4ccc(OC)c(Br)c4)c3C[C@H]2CN1C(=O)c1ccccc1 ... f
CN(C)CCCC[C@@H]1NC(=O)[C@H]2C[C@@H](C(=O)NCc3ccc(F)cc3)[C@@H](c3ccc(O)cc3)N2C1=O ... t

----------
- experimental-system: NADPH oxidase 4 (Homo sapiens) (UniProt Q9NPH5)
- Sequence (Q9NPH5 whole entry, looked up): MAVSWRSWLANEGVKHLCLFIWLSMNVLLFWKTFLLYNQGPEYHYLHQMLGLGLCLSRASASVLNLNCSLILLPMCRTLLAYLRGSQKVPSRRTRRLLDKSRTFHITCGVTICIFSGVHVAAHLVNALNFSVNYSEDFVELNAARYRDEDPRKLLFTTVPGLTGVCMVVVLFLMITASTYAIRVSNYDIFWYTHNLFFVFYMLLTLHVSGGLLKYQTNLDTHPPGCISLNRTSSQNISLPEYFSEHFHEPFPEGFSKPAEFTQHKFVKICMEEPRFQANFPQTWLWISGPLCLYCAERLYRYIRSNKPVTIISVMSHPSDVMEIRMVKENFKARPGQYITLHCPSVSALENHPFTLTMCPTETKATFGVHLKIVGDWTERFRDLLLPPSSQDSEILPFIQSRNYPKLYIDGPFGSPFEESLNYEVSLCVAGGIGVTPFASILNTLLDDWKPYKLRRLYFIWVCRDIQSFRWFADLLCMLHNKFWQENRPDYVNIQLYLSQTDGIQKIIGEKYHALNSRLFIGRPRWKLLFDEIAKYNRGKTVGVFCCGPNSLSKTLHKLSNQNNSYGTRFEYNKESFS
- assay: NOX4-dependent H2O2 signal modulators, primary screen, NOX inhibitor project, cell-based, HEK293-NOX4, tetracycline-induced, Amplex Red fluorescence (AID 1160)
- test-settings: 45 min, higher = more signal, called active from +8 up or from −8 down
property-name: z-score

COC(=O)C1=CC(CCCO)=CC(C2CC2)N(Cc2cccc(OC(F)(F)F)c2)C=C1C(=O)OC (configuration not stated) ... -0.34
COc1cccc(OC)c1C(=O)O[C@H]1[C@@H]2OC(=O)[C@H](Cc3cccc(Br)c3)C/C=C/C[C@@H](Cc3cccc(Br)c3)C(=O)O[C@H]2[C@@H](OC)O[C@@H]1CO ... -0.0533
CN1C=C(C(=O)OCCS(C)(=O)=O)C(C(=O)OCCS(C)(=O)=O)=CC(CCCO)=CC1c1ccc(CN2CCCC2)cc1 (configuration not stated) ... 0.0702
O=C1C2C=CC(C(O)c3cccs3)N(Nc3ccccc3)C2C(=O)N1c1ccccc1 (configuration not stated) ... -3.57
O=C1OCCC=C[C@H]2OC34C=CCN(CCN5CCOCC5)C(=O)[C@H]3N(CCCO)C(=O)[C@@H]4C12 (some centres not stated) ... -1.97
CCOC(=O)C1=CCC(c2cc3ccccc3[nH]2)N(S(=O)(=O)c2ccccc2[N+](=O)[O-])C1 (configuration not stated) ... -0.546
C=CCC(OC(C)=O)[C@@H]1[C@@H](N(Cc2ccc(-c3cccc(C(F)(F)F)c3)o2)C(=O)c2cccc3ccccc23)c2cc(OCCCO)ccc2N1C(=O)c1ccc2ccccc2c1 (some centres not stated) ... -1.74
